system: NTMT1; assay: MALDI-MS methyltransferase activity assay, NTMT1; assay type: biochemical, human; conditions: 2 μM NTMT1, 10 μM peptide, 200 μM SAM, 25 mM Tris–HCl pH 7.5, 50 mM KCl, 37 °C, overnight
value-type: Mono-methylated fraction (%)

a: PPKRIA [synthetic XPKRIA hexapeptide substrate, X = P]
b: LPKRIA [synthetic XPKRIA hexapeptide substrate, X = L]
Q) In terms of reported Mono-methylated fraction, does a or b have the smaller number? Answer format: the label of the selected item.
A) a
(a: 0.00%, b: 26.28%)

A: KPKRIA [synthetic XPKRIA hexapeptide substrate, X = K]
B: TPKRIA [synthetic XPKRIA hexapeptide substrate, X = T]
Q) In terms of reported Mono-methylated fraction, does A or B have the smaller number? Answer format: the label of the selected item.
A) A

I: HPKRIA [synthetic XPKRIA hexapeptide substrate, X = H]
II: IPKRIA [synthetic XPKRIA hexapeptide substrate, X = I]
III: WPKRIA [synthetic XPKRIA hexapeptide substrate, X = W]
IV: DPKRIA [synthetic XPKRIA hexapeptide substrate, X = D]
V: CPKRIA [synthetic XPKRIA hexapeptide substrate, X = C]
Q) Arrange these substances by their Mono-methylated fraction, starting with the largest number. Provide your answer as the labels ordered per the instruction.
A) III, II, V, IV, I

A: YPKRIA [synthetic XPKRIA hexapeptide substrate, X = Y]
B: EPKRIA [synthetic XPKRIA hexapeptide substrate, X = E]
Q) Name the one with the greater Mono-methylated fraction value, either A or B as given. Answer format: the label of the selected item.
A) B
